Measured values drawn from ChEMBL document CHEMBL1828549 for this set.

Test system: Staphylococcus aureus
Procedure Details: Antibacterial activity against […] Staphylococcus aureus ATCC 29213 by the broth microdilution method
Type: functional
Entries and their measured MIC follow.
Quick note: give the figure in µg/mL, leave out the unit.

- Smiles Str: "CC[C@H]1OC(=O)[C@H](C)[C@@H](O[C@H]2C[C@@](C)(OC)[C@@H](OC(=O)NCCCCNC(=O)c3ccccc3OC)[C@H](C)O2)[C@H](C)[C@@H](O[C@@H]2O[C@H](C)C[C@H](N(C)C)[C@H]2O)[C@](C)(O)C[C@@H](C)CN(C)[C@H](C)[C@H]2OC(=O)O[C@@]21C"
  Readout Unit: "µg/mL"
  MIC: 16
- Smiles Str: "CC[C@H]1OC(=O)[C@H](C)[C@@H](O[C@H]2C[C@@](C)(OC)[C@@H](OC(=O)NCCNC(=O)c3ccc(Cl)cc3Cl)[C@H](C)O2)[C@H](C)[C@@H](O[C@@H]2O[C@H](C)C[C@H](N(C)C)[C@H]2O)[C@](C)(O)C[C@@H](C)CN(C)[C@H](C)[C@H]2OC(=O)O[C@@]21C"
  Readout Unit: "µg/mL"
  MIC: 8
- Smiles Str: "CC[C@H]1OC(=O)[C@H](C)[C@@H](O[C@H]2C[C@@](C)(OC)[C@@H](OC(=O)NCCNC(=O)c3ccc(Cl)cc3)[C@H](C)O2)[C@H](C)[C@@H](O[C@@H]2O[C@H](C)C[C@H](N(C)C)[C@H]2O)[C@](C)(O)C[C@@H](C)CN(C)[C@H](C)[C@H]2OC(=O)O[C@@]21C"
  Readout Unit: "µg/mL"
  MIC: 16
- Smiles Str: "CC[C@H]1OC(=O)[C@H](C)[C@@H](O[C@H]2C[C@@](C)(OC)[C@@H](OC(=O)NCCNC(=O)c3ccc([N+](=O)[O-])cc3)[C@H](C)O2)[C@H](C)[C@@H](O[C@@H]2O[C@H](C)C[C@H](N(C)C)[C@H]2O)[C@](C)(O)C[C@@H](C)CN(C)[C@H](C)[C@H]2OC(=O)O[C@@]21C"
  Readout Unit: "µg/mL"
  MIC: 16
- Smiles Str: "CC[C@H]1OC(=O)[C@H](C)[C@@H](O[C@H]2C[C@@](C)(OC)[C@@H](OC(=O)NCCCCNC(=O)c3ccc(F)cc3)[C@H](C)O2)[C@H](C)[C@@H](O[C@@H]2O[C@H](C)C[C@H](N(C)C)[C@H]2O)[C@](C)(O)C[C@@H](C)CN(C)[C@H](C)[C@H]2OC(=O)O[C@@]21C"
  Readout Unit: "µg/mL"
  MIC: 16
- Smiles Str: "CC[C@H]1OC(=O)[C@H](C)[C@@H](O[C@H]2C[C@@](C)(OC)[C@@H](OC(=O)NNC(=O)c3ccc(OC)cc3)[C@H](C)O2)[C@H](C)[C@@H](O[C@@H]2O[C@H](C)C[C@H](N(C)C)[C@H]2O)[C@](C)(O)C[C@@H](C)CN(C)[C@H](C)[C@H]2OC(=O)O[C@@]21C"
  Readout Unit: "µg/mL"
  MIC: 32

Would you kindly share the measured MIC for CC[C@H]1OC(=O)[C@H](C)[C@@H](O[C@H]2C[C@@](C)(OC)[C@@H](OC(=O)NCCCCNC(=O)c3ccc(Br)cc3)[C@H](C)O2)[C@H](C)[C@@H](O[C@@H]2O[C@H](C)C[C@H](N(C)C)[C@H]2O)[C@](C)(O)C[C@@H](C)CN(C)[C@H](C)[C@H]2OC(=O)O[C@@]21C ?
32
